Reported −ΔG values for a set of compounds
systemUnderTest: AFL lectin (Aspergillus fumigatus)
measurementDescription: biochemical
Format: binding
experimentalSetup: Table 2, second batch of purified AFL protein

compound	systemUnderTest	−ΔG / kcal/mol
CO[C@@H]1O[C@@H](C)[C@@H](O)[C@@H](O)[C@@H]1O [αMeFuc, methylfucoside, reference compound]	AFL lectin (Aspergillus fumigatus)	5.4
CC1OC(OCc2cn(CC3OC4OC5C(Cn6cc(COC7OC(C)C(O)C(O)C7O)nn6)OC(OC6C(Cn7cc(COC8OC(C)C(O)C(O)C8O)nn7)OC(OC7C(Cn8cc(COC9OC(C)C(O)C(O)C9O)nn8)OC(OC8C(Cn9cc(COC%10OC(C)C(O)C(O)C%10O)nn9)OC(OC9C(Cn%10cc(COC%11OC(C)C(O)C(O)C%11O)nn%10)OC(OC3C(O)C4O)C(O)C9O)C(O)C8O)C(O)C7O)C(O)C6O)C(O)C5O)nn2)C(O)C(O)C1O (stereo not drawn)	AFL lectin (Aspergillus fumigatus)	7.82
CC1OC(OCCOCCOCCOCCOCc2cn(CC3OC4OC5C(Cn6cc(COCCOCCOCCOCCOC7OC(C)C(O)C(O)C7O)nn6)OC(OC6C(Cn7cc(COCCOCCOCCOCCOC8OC(C)C(O)C(O)C8O)nn7)OC(OC7C(Cn8cc(COCCOCCOCCOCCOC9OC(C)C(O)C(O)C9O)nn8)OC(OC8C(Cn9cc(COCCOCCOCCOCCOC%10OC(C)C(O)C(O)C%10O)nn9)OC(OC9C(Cn%10cc(COCCOCCOCCOCCOC%11OC(C)C(O)C(O)C%11O)nn%10)OC(OC3C(O)C4O)C(O)C9O)C(O)C8O)C(O)C7O)C(O)C6O)C(O)C5O)nn2)C(O)C(O)C1O (stereo not drawn)	AFL lectin (Aspergillus fumigatus)	9.39

---

systemUnderTest: AFL lectin (Aspergillus fumigatus, UniProt Q4WW81)
Sequence (Q4WW81 whole entry): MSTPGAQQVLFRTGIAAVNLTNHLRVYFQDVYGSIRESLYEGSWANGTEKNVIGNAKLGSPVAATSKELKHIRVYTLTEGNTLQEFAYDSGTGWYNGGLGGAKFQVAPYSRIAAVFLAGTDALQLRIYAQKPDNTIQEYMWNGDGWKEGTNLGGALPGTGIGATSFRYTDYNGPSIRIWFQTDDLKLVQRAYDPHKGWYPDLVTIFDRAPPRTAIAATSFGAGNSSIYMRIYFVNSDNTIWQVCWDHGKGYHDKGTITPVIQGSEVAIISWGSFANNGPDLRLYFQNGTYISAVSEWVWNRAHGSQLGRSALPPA
measurementDescription: biochemical
Type: binding
experimentalSetup: Table 1, first AFL batch; amount of ligand bound to a single protein
Reported Stoichiometry values for a set of molecules

molecule	Stoichiometry
C[C@@H]1O[C@@H](OCc2cn(CCOCCOCCOCCO)nn2)[C@@H](O)[C@H](O)[C@@H]1O [Compound 33, reference compound]	4.0 ± 0.3
CO[C@@H]1O[C@@H](C)[C@@H](O)[C@@H](O)[C@@H]1O [αMeFuc, methylfucoside, reference compound]	5
CC1OC(OCCOCCOCc2cn(CC3OC4OC5C(Cn6cc(COCCOCCOC7OC(C)C(O)C(O)C7O)nn6)OC(OC6C(Cn7cc(COCCOCCOC8OC(C)C(O)C(O)C8O)nn7)OC(OC7C(Cn8cc(COCCOCCOC9OC(C)C(O)C(O)C9O)nn8)OC(OC8C(Cn9cc(COCCOCCOC%10OC(C)C(O)C(O)C%10O)nn9)OC(OC9C(Cn%10cc(COCCOCCOC%11OC(C)C(O)C(O)C%11O)nn%10)OC(OC3C(O)C4O)C(O)C9O)C(O)C8O)C(O)C7O)C(O)C6O)C(O)C5O)nn2)C(O)C(O)C1O (stereo not shown)	1.01 ± 0.02
CC1OC(OCCOCCOCCOCCOCc2cn(CC3OC4OC5C(Cn6cc(COCCOCCOCCOCCOC7OC(C)C(O)C(O)C7O)nn6)OC(OC6C(Cn7cc(COCCOCCOCCOCCOC8OC(C)C(O)C(O)C8O)nn7)OC(OC7C(Cn8cc(COCCOCCOCCOCCOC9OC(C)C(O)C(O)C9O)nn8)OC(OC8C(Cn9cc(COCCOCCOCCOCCOC%10OC(C)C(O)C(O)C%10O)nn9)OC(OC9C(Cn%10cc(COCCOCCOCCOCCOC%11OC(C)C(O)C(O)C%11O)nn%10)OC(OC3C(O)C4O)C(O)C9O)C(O)C8O)C(O)C7O)C(O)C6O)C(O)C5O)nn2)C(O)C(O)C1O (stereo not shown)	0.77 ± 0.04

---

systemUnderTest: AFL lectin (Aspergillus fumigatus, UniProt Q4WW81)
measurementDescription: biochemical
Assay type: binding
experimentalSetup: β=(Kd)monovalent/[(Kd)multivalent×Valency], calculated from methylfucoside
assayReadout: β (β-factor, relative potency per ligand)

compound	recordedValue
CC1OC(OCCOCCOCc2cn(CC3OC4OC5C(Cn6cc(COCCOCCOC7OC(C)C(O)C(O)C7O)nn6)OC(OC6C(Cn7cc(COCCOCCOC8OC(C)C(O)C(O)C8O)nn7)OC(OC7C(Cn8cc(COCCOCCOC9OC(C)C(O)C(O)C9O)nn8)OC(OC8C(Cn9cc(COCCOCCOC%10OC(C)C(O)C(O)C%10O)nn9)OC(OC9C(Cn%10cc(COCCOCCOC%11OC(C)C(O)C(O)C%11O)nn%10)OC(OC3C(O)C4O)C(O)C9O)C(O)C8O)C(O)C7O)C(O)C6O)C(O)C5O)nn2)C(O)C(O)C1O (stereo not shown)	144

The origin of these recorded values is patent US11389466B2.
